# tested-system: Acetylcholinesterase (Homo sapiens)
# Sequence (P22303 whole entry): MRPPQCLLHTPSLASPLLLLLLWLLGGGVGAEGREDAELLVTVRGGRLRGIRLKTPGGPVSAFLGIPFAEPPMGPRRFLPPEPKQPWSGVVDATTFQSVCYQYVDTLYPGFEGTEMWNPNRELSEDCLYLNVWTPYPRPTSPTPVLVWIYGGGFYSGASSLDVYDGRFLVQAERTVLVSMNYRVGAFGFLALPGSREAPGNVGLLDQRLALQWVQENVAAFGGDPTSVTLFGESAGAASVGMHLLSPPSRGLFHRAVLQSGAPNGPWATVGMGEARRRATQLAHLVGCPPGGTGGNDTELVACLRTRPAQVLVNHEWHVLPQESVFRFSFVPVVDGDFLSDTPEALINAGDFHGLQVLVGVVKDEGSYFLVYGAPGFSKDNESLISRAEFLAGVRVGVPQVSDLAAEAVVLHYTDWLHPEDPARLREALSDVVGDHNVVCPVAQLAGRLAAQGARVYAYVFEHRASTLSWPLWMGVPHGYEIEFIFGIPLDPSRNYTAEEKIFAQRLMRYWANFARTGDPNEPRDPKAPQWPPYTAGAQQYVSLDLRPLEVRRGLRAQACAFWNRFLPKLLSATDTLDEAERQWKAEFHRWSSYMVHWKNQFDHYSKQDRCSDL
Binary call on IC50 with cut-off 20 µM: strictly below means fulfilled, and equality or higher means not fulfilled.

Worked set:
c1ccc2c(CNc3ccnc(N4CCOCC4)n3)cccc2c1: fulfilled
c1ccc(CNc2ccnc(N3CCCC3)n2)cc1: fulfilled
CC(C)(C)OC(=O)N1CCN(c2nccc(NCc3ccccc3)n2)CC1: fulfilled
c1ccc(CNc2ccnc(N3CCNCC3)n2)cc1: fulfilled
CC(C)N1CCN(c2nccc(NCc3ccccc3)n2)CC1: not fulfilled

hey, is IC50 for O=S1(=O)CCN(c2nccc(NCc3ccccc3)n2)CC1 lower than 20 µM or not?
not fulfilled

hey, is IC50 for CN1CCN(c2nccc(NCc3ccccc3)n2)CC1 lower than 20 µM or not?
not fulfilled

Field: below-cutoff. Rule: recorded IC50 strictly less than 20 µM. Subject: COCCN1CCN(c2nccc(NCc3ccccc3)n2)CC1
not fulfilled

* * *

Form: system (Butyrylcholinesterase (Equus caballus)), quantity (IC50), values below.
Report the value in µM with no unit label.

A selection of reference data follows.
Brc1ccc(CN2CCN(c3nccc(NCc4ccccc4)n3)CC2)cc1: 14.3
CC(C)N1CCN(c2nccc(NCc3ccccc3)n2)CC1: 3.4
c1ccc(CNc2ccnc(N3CCSCC3)n2)cc1: 6.1
CN1CCN(c2nccc(NCc3cccc4ccccc34)n2)CC1: 2.6
CCCN1CCN(c2nccc(NCc3ccccc3)n2)CC1: 59.9

Butyrylcholinesterase (Equus caballus) / IC50 / Clc1ccc(CN2CCN(c3nccc(NCc4ccccc4)n3)CC2)cc1 : value?
10.7

Notebook: pull reported IC50 for Butyrylcholinesterase (Equus caballus), entry CC1CCN(c2nccc(NCc3cccc4ccccc34)n2)CC1
2.2

* * *

Consider compounds characterized by their pIC50 with Butyrylcholinesterase (Equus caballus).
Sequence (Q9N1N9 whole entry): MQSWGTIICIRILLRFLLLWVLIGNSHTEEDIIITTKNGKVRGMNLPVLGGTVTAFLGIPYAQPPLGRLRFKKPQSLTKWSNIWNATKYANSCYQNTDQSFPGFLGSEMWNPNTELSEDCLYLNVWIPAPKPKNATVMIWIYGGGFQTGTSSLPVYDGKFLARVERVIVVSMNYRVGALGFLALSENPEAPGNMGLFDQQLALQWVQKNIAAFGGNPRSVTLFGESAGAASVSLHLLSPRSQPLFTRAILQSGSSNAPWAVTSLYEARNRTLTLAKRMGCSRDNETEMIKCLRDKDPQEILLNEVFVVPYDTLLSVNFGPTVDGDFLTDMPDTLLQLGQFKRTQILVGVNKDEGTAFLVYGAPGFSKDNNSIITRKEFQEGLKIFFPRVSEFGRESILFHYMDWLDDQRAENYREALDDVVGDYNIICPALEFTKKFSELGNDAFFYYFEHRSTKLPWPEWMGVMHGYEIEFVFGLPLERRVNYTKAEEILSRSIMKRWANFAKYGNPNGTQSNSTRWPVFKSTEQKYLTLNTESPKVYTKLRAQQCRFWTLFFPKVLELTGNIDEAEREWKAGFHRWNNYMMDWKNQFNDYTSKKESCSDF
# log scale: pIC50 equals minus log10 of the concentration in mol/L

Some solved entries appear below for comparison.
c1ccc2c(CNc3ccnc(N4CCCC4)n3)cccc2c1: 5.05
c1ccc(CNc2ccnc(N3CCCC3)n2)cc1: 4.58
c1ccc(CNc2ccnc(N3CCN(C4CCCCC4)CC3)n2)cc1: 5.12

Could you now look at the following compound, please?
Notebook: pull reported pIC50 for Butyrylcholinesterase (Equus caballus), entry CC(C)C1CCN(c2nccc(NCc3ccccc3)n2)CC1
5.19

* * *

Reported IC50 values are given for each entry in this list.
# tested-system: UniProtKB P22303
Lab book: enter the figure in µM, no units written.

c1ccc(CNc2ccnc(N3CCOCC3)n2)cc1: 14

Find IC50 (UniProtKB P22303) for the entry CN1CCN(c2nccc(NCCc3ccccc3)n2)CC1
20.4

Form field - read-out: IC50; system: UniProtKB P22303; submitted item: c1ccc2c(CNc3ccnc(N4CCSCC4)n3)cccc2c1
12.8

Please provide the recorded IC50 for CCCN1CCN(c2nccc(NCc3ccccc3)n2)CC1 , tested on UniProtKB P22303.
15.3

# value lookup — system UniProtKB P22303, readout IC50, item Brc1ccc(CN2CCN(c3nccc(NCc4ccccc4)n3)CC2)cc1
25.5

Quick check: IC50 on UniProtKB P22303, item OCCN1CCN(c2nccc(NCc3ccccc3)n2)CC1 ?
26.4

Query for UniProtKB P22303: what IC50 does the record show for c1ccc(CNc2ccnc(N3CCN(C4CCCCC4)CC3)n2)cc1 ?
22.9

* * *

Butyrylcholinesterase (Equus caballus) IC50 data

CN1CCN(c2nccc(NCCc3ccccc3)n2)CC1: > 100 µM
CN1CCN(c2nccc(NCc3ccccc3)n2)CC1: > 100 µM
Fc1ccc(CN2CCN(c3nccc(NCc4ccccc4)n3)CC2)cc1: 7.3 µM
c1ccc2c(CNc3ccnc(N4CCOCC4)n3)cccc2c1: 28 µM
O=S1(=O)CCN(c2nccc(NCc3ccccc3)n2)CC1: > 100 µM

Would you kindly look at the next entry?
GET /values?readout=IC50&system=Butyrylcholinesterase (Equus caballus)&item= c1ccc(CNc2ccnc(NC3CCN(Cc4ccccc4)CC3)n2)cc1
8.2 µM
